System: AKR/Lw mice, AKR lymphoma ip, median survival T/C
PROTOCOL_NOTES: NCI In Vivo Anticancer Drug Screen. Data for tumor model Lymphoma AKR (Transplanted) (intraperitoneal) in AKR/Lw mice
SETTINGS: endpoint: median survival time; dose: 50.0 mg/kg/injection; schedule: Q01DX001 (ip); vehicle: Klucel (hydroxypropylcellulose) (HPC); higher = longer survival
Inconclusive results and toxic doses are left out.
READOUT: T/C

Answered examples (5):
Cc1ccc(N=C(c2ccc([N+](=O)[O-])cc2)c2ccc([N+](=O)[O-])cc2)cc1 105 % of control
CC(=O)NNC(=O)c1ccccn1 92 % of control
CC(=O)c1ccc2ccccc2c1O 88 % of control
CC(=O)CC(=O)c1ccccc1.CC(=O)CC(=O)c1ccccc1.CC(=O)CC(=O)c1ccccc1.[Co] 100 % of control
O=CN(c1ccccc1)c1ccccc1 105 % of control

stdin: Requested field: T/C. Item: CC1(C)N=C(N)N=C(N)N1c1cc(Cl)c(Cl)cc1Cl
stdout: 106 % of control

stdin: Now the molecule Cc1cnc2c(N)[nH]nc2n1
stdout: 97 % of control

stdin: Cc1c2ccncc2c(C)c2c1[nH]c1ccccc12 , same question.
stdout: 118 % of control

stdin: What would you report for CN(C)/N=N/c1nc[nH]c1C(N)=O ?
stdout: 102 % of control

---

compounds and their reported T/C
Test system: AKR/Lw mice, AKR lymphoma ip, median survival T/C
PROTOCOL_NOTES: NCI In Vivo Anticancer Drug Screen. Data for tumor model Lymphoma AKR (Transplanted) (intraperitoneal) in AKR/Lw mice
SETTINGS: endpoint: median survival time; dose: 0.25 mg/kg/injection; schedule: Q01DX009 (ip); vehicle: saline; higher = longer survival
Inconclusive results and toxic doses are left out.

Guide cases for T/C, answers given:
CC[C@]1(O)C[C@H]2CN(CCc3c([nH]c4ccccc34)[C@@](C(=O)OC)(c3cc4c(cc3OC)N(C=O)[C@H]3[C@@](O)(C(=O)OC)[C@H](OC(C)=O)[C@]5(CC)C=CCN6CC[C@]43[C@@H]65)C2)C1 109 % of control
S=P(N1CC1)(N1CC1)N1CC1 87 % of control

stdin: Could you tell me which T/C is on file for Nc1nc(=S)c2[nH]cnc2[nH]1 ?
stdout: 96 % of control

stdin: # repeat for CN(Cc1cnc2nc(N)nc(N)c2n1)c1ccc(C(=O)N[C@@H](CCC(=O)O)C(=O)O)cc1
stdout: 112 % of control

---

System: AKR/Lw mice, AKR lymphoma ip, median survival T/C
PROTOCOL_NOTES: NCI In Vivo Anticancer Drug Screen. Data for tumor model Lymphoma AKR (Transplanted) (intraperitoneal) in AKR/Lw mice
SETTINGS: endpoint: median survival time; dose: 25.0 mg/kg/injection; schedule: Q01DX001 (ip); vehicle: Klucel (hydroxypropylcellulose) (HPC); higher = longer survival
Inconclusive results and toxic doses are left out.
READOUT: T/C

O=CN(c1ccccc1)c1ccccc1 111 % of control
Cc1c2ccncc2c(C)c2c1[nH]c1ccccc12 123 % of control
Cc1cnc2c(N)[nH]nc2n1 100 % of control
CC(=O)CC(=O)c1ccccc1.CC(=O)CC(=O)c1ccccc1.CC(=O)CC(=O)c1ccccc1.[Co] 100 % of control
CC(=O)c1ccc2ccccc2c1O 102 % of control

Next:
stdin: So what's the measured T/C for this one? CC1(C)N=C(N)N=C(N)N1c1cc(Cl)c(Cl)cc1Cl
stdout: 106 % of control
